Target or test system: T1, cynomolgus Trop-2-His protein (cynomolgus, UniProt P09758 27-274 (human entry))
T1 construct: also called cynmolgus Trop-His; Kactus Cat #TRP-CM121; not shown: His tag
T1 chain: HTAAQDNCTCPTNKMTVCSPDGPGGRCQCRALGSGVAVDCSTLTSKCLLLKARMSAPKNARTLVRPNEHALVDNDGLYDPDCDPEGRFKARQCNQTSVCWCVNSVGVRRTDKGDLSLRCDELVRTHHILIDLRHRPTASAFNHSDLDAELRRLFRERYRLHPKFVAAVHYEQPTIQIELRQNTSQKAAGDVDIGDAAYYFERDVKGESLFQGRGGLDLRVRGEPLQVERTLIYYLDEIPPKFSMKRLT
Method notes: BLI (Gator Prime), LEM supernatant Ab on HFC probe
Protocol: After three times of regeneration and neutralization of HFC probe (Gator, Cat #160003), LEM transfection supernatant samples to be tested in K buffer was diluted 1:1 in K buffer and immobilized onto HFC probe. […] The association and dissociation of human or cynomolgus Trop-2-His antigen from antibody was measured on BLI machine Gator Prime. Affinity was calculated using Gator Bio analysis software. Blank control was used for reference subtraction. […]
kon: recorded values
Reply numerically in M⁻¹ s⁻¹, unit not repeated.

[[record]]
binder = "10E12 (antibody, V domains shown, Rabbit-derived clone; LEM construct: VH + rabbit IgG CH1 + human IgG1 CH2-CH3) VH: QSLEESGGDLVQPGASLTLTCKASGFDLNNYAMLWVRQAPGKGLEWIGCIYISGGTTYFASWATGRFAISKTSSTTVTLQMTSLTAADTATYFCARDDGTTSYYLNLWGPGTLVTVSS VL: YDMTQTPASVSAAVGGTVTIKCQASEDIYSLLAWYQQKPGQPPKLLIYDASDLASGVPSRFKGSGSGTEYTLTISDLECDDAATYYCQQAYTIGNIDNAFGGGTEVVVK"
measurement_unit = "M⁻¹ s⁻¹"
val = 605000


INPUT: Report kon for 10D3 (antibody, V domains shown, Rabbit-derived clone; LEM construct: VH + rabbit IgG CH1 + human IgG1 CH2-CH3) VH: QSLEESGGDLVQPGASLTLTCKAAGFDLNNYSMLWVRQAPGKGLEWIGCIYISGGTTYYASWAKGRFTISKTSSTTVTLQMTSLTAADTATYFCARDDGSTSYYLNLWGPGTLVTVSS VL: YDMTQTPASVSEPVGGTVTIKCQASEDIYRLLAWYQQKPGQPPKLLIYDASDLASGVPSRFKGSGSGTEYTLTISGLQCADAATYYCQQGYTIGNIDNSFGGGTEVVVK please.
OUTPUT: 454000

INPUT: Report kon for 9D7 (antibody, V domains shown, Rabbit-derived clone; LEM construct: VH + rabbit IgG CH1 + human IgG1 CH2-CH3) VH: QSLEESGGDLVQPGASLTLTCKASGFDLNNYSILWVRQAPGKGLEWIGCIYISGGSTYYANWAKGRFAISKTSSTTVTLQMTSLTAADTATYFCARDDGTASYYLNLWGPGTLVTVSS VL: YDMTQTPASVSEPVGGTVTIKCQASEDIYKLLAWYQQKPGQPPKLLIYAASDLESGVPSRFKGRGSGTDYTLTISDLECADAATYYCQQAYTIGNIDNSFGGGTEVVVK please.
OUTPUT: 528000
